The origin of these recorded values is PubChem BioAssay (Tox21).

assay: qHTS assay to identify small molecule antagonists of the glucocorticoid receptor (GR) signaling pathway - cell viability counter screen (AID 720693); conditions: GR-bla HeLa viability, CellTiter-Glo luminescence, 18 h, with 5 nM dexamethasone present; series mostly up to 58.5 µM; also: nearly all actives have a fitted effect of over 55% in size
Results filed as inconclusive are left out. The source made the active and inactive calls. Calls follow the shape of the dose curve; as a rule, active = well fitted cell-killing curve with a large enough effect in the repeat runs; inconclusive = weak or mixed curves, or effect the other way; inactive = no such curve, though single readings can be large or run the other way.

entrySmiles	outcome
O=[N+]([O-])c1ccc(O)c2ncccc12	inactive
CC[C@H]1OC(=O)[C@H](C)C(=O)[C@H](C)[C@@H](O[C@@H]2O[C@H](C)C[C@H](N(C)C)[C@H]2O)[C@](C)(OC)C[C@@H](C)C(=O)[C@H](C)[C@H]2N(CCCCn3cnc(-c4cccnc4)c3)C(=O)O[C@]12C	inactive
CC1(C)S[C@@H]2[C@H](NC(=O)[C@@H](NC(=O)N3CCNC3=O)c3ccccc3)C(=O)N2[C@H]1C(=O)O	inactive
COc1cc2c(c(OC)c1OC)-c1c(cc3c(c1OC)OCO3)C[C@@H](C)[C@](C)(O)C2	inactive
N=C(N)n1cccn1	inactive

----------
test: qHTS assay to identify small molecule antagonists of the sonic hedgehog signaling (Shh) pathway - cell viability counter screen (AID 1259367); details: NIH/3T3 Gli1-Luc viability, CellTiter-Fluor, 24 h; series mostly up to 92.4 µM; also: nearly all actives have a fitted effect of over 55% in size
Results filed as inconclusive are left out. Calls of active or inactive are those of the source. The call rests on the fitted dose curve; in most records, active means well fitted cell-killing curve with a large enough effect in the repeat runs; inconclusive means weak or mixed curves, or effect the other way; inactive means no such curve, though single readings can be large or run the other way.
Outcomes: active, inactive

> print(dat)
                                    compound       cat
 1    C=CC(=O)OCC(Br)CBr (centres undefined)  inactive
 2  CCOC(=O)C1=NN(c2ccc(Cl)cc2Cl)C(C)(C(=O)OCC)C1 (centres undefined)  inactive
 3                               C=CC(C)(C)O  inactive
 4         CCOC(=O)[C@H](O)[C@@H](O)C(=O)OCC  inactive
 5    Cc1ccc2nc(-c3ccc(N)cc3)sc2c1S(=O)(=O)O  inactive
 6                     CCn1c2ccccc2c2ccccc21  inactive
 7                               C=Cc1ccncc1  inactive
 8                           O=C1OCc2ccccc21  inactive
 9                        C=Cc1ccc(O)c(OC)c1    active
10                      Oc1ccc(Cl)cc1C1CCCC1  inactive
11              Nc1cc([N+](=O)[O-])cc(Cl)c1O  inactive
12             COC(=O)c1ccc([N+](=O)[O-])cc1  inactive
13  CC(C)(c1ccc(Oc2ccc(N)cc2)cc1)c1ccc(Oc2ccc(N)cc2)cc1  inactive
14                        [Cl][Sc]([Cl])[Cl]  inactive

----------
test: qHTS assay to identify small molecule antagonists of the thyroid receptor (TR) signaling pathway - cell viability counter screen (AID 743064); details: GH3.TRE-Luc viability, CellTiter-Fluor, 24 h; series mostly up to 70.3 µM; also: nearly all actives have a fitted effect of over 50% in size
Results filed as inconclusive are left out. The source made the active and inactive calls. Calls come from the whole dose curve; as a rule, active = well fitted cell-killing curve with a large enough effect in the repeat runs; inconclusive = weak or mixed curves, or effect the other way; inactive = no such curve, though single readings can be large or run the other way.
Outcomes: active, inactive

compound	cat
CCC(C)(C)c1ccc(CC(C)CN2C[C@@H](C)O[C@@H](C)C2)cc1 (some centres undefined)	active
C/C=C/C1=C(C(=O)O)N2C(=O)[C@@H](NC(=O)[C@H](N)c3ccc(O)cc3)[C@H]2SC1	inactive
N[C@@H](Cc1ccc(O)c(O)c1)C(=O)O	inactive
O=C[C@H](O)[C@@H](O)[C@@H](O)[C@H](O)CO	inactive
CC[C@H]1OC(=O)[C@H](C)C(=O)[C@H](C)[C@@H](O[C@@H]2O[C@H](C)C[C@H](N(C)C)[C@H]2O)[C@](C)(OC)C[C@@H](C)C(=O)[C@H](C)[C@H]2N(CCCCn3cnc(-c4cccnc4)c3)C(=O)O[C@]12C	inactive
CCN(CC)CC#CCOC(=O)C(O)(c1ccccc1)C1CCCCC1 (centres undefined)	active
CCOc1ccc([N+](=O)[O-])cc1	active
C[C@@H]1O[C@@H](OC[C@H]2O[C@@H](Oc3c(-c4ccc(OCCO)c(OCCO)c4)oc4cc(OCCO)cc(O)c4c3=O)[C@H](O)[C@@H](O)[C@@H]2O)[C@H](O)[C@H](O)[C@H]1O	inactive
CC1=C(/C=C/C(C)=C/C=C/C(C)=C/C=C/C=C(C)/C=C/C=C(C)/C=C/C2=C(C)CCCC2(C)C)C(C)(C)CCC1	inactive
COC(=O)C[C@](O)(CCCC(C)(C)O)C(=O)O[C@@H]1C(OC)=CC23CCCN2CCc2cc4c(cc2[C@H]13)OCO4 (some centres undefined)	active
C[S+](C)CCC(N)C(=O)O (centres undefined)	inactive
N=C(N)n1cccn1	inactive
CNCCC=C1c2ccccc2CCc2ccccc21	active
CSCCC(N)C(=O)O (centres undefined)	inactive
CCOC(=O)Cc1ccc(-c2ccccc2)cc1	inactive
CC(=O)OCC(=O)[C@@]1(O)CC[C@H]2[C@@H]3CCC4=CC(=O)CC[C@]4(C)C3=CC[C@@]21C	inactive
CC/C=C\C/C=C\C/C=C\C/C=C\C/C=C\C/C=C\CCC(=O)O	inactive
CO/N=C(\C(=O)N[C@@H]1C(=O)N2C(C(=O)O)=C(COC(C)=O)CS[C@H]12)c1csc(N)n1 (stereo in doubt)	inactive
CCCCCCCCCCCC[n+]1ccc2ccccc2c1	active
